experiment: Luciferase activity of purified RLuc mutants (light output integrated over 10 s, luminometer); type: biochemical; conditions: bisdeoxycoelenterazine; relative to native enzyme
readout type: Activity (relative to RLuc) bdc
Answer with the value's number alone.

Kindly note the recorded Activity (relative to RLuc) bdc for C124A/A143M: RLuc mutant C124A/A143M (protein) MASKVYDPEQRKRMITGPQWWARCKQMNVLDSFINYYDSEKHAENAVIFLHGNAASSYLWRHVVPHIEPVARCIIPDLIGMGKSGKSGNGSYRLLDHYKYLTAWFELLNLPKKIIFVGHDWGAALAFHYSYEHQDKIKAIVHMESVVDVIESWDEWPDIEEDIALIKSEEGEKMVLENNFFVETMLPSKIMRKLEPEEFAAYLEPFKEKGEVRRPTLSWPREIPLVKGGKPDVVQIVRNYNAYLRASDDLPKMFIESDPGFFSNAIVEGAKKFPNTEFVKVKGLHFSQEDAPDEMGKYIKSFVERVLKNEQ , which is 1.6

Entry A54G/A55G/C124A: RLuc mutant A54G/A55G/C124A (protein) MASKVYDPEQRKRMITGPQWWARCKQMNVLDSFINYYDSEKHAENAVIFLHGNGGSSYLWRHVVPHIEPVARCIIPDLIGMGKSGKSGNGSYRLLDHYKYLTAWFELLNLPKKIIFVGHDWGAALAFHYSYEHQDKIKAIVHAESVVDVIESWDEWPDIEEDIALIKSEEGEKMVLENNFFVETMLPSKIMRKLEPEEFAAYLEPFKEKGEVRRPTLSWPREIPLVKGGKPDVVQIVRNYNAYLRASDDLPKMFIESDPGFFSNAIVEGAKKFPNTEFVKVKGLHFSQEDAPDEMGKYIKSFVERVLKNEQ ; Activity (relative to RLuc) bdc = 0.19
